Consider the following compounds; for each one, report its residual activity.
# test_system: FGFR1 (human) (UniProt P11362)
# Sequence (P11362 whole entry, looked up): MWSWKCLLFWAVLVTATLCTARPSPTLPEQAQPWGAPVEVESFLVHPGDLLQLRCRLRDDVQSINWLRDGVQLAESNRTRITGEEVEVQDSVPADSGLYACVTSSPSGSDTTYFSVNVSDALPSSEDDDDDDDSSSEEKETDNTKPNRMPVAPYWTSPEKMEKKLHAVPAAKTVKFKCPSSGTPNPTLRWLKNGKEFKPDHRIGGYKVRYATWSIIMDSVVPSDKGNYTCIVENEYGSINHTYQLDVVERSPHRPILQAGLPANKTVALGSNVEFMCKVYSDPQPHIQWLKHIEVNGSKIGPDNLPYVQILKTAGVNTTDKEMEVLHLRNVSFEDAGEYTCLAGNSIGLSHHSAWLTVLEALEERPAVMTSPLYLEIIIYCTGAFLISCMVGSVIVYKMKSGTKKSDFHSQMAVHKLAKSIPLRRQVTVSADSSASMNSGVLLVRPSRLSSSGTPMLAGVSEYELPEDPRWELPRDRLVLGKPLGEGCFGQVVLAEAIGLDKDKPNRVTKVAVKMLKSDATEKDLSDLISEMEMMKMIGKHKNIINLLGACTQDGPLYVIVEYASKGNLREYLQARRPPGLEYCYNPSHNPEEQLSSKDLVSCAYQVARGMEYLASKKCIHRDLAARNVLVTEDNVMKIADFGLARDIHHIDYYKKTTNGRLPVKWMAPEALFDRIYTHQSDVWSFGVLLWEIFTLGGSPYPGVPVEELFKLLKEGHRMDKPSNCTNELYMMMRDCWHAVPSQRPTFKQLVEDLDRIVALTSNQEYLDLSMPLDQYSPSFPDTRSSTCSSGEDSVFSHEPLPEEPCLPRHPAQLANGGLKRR
# assay_summary: radiometric filter-binding kinase assay, Kinase HotSpot
# applied_conditions: compound 0.5 µM; ATP 10 µM
Give bare numbers, in %.

Reference set, count: 6
CC(C)[C@H](CO)Nc1nc(Nc2cccc(Cl)c2)c2ncn(C(C)C)c2n1	80.6
O=C1Nc2cc(Br)ccc2/C1=C1/Nc2ccccc2/C1=N\O	45.1
C#Cc1cccc(Nc2ncnc3cc(OCCOC)c(OCCOC)cc23)c1	99.1
COc1ccc(-c2cnc3c(-c4ccsc4)cnn3c2)cc1	80.3
Nc1n[nH]c2nnc(-c3c(-c4ccccc4)nn4ccccc34)cc12	94.7
O=c1cc(N2CCNCC2)oc2c(-c3ccccc3)cccc12	110

Please give residual activity for each item listed below.
1. O=C(NC(NC(=S)Nc1ccc(F)c([N+](=O)[O-])c1)C(Cl)(Cl)Cl)C(c1ccccc1)c1ccccc1 (stereo unspecified)
2. COc1cc2nccc(Oc3ccc(NC(=S)NC(=O)c4ccccc4C)cc3)c2cc1OC
3. Oc1ccc(-c2nc(-c3ccc(F)cc3)c(-c3ccncc3)[nH]2)cc1
4. O=C1Nc2ccccc2/C1=C\c1c(Cl)[nH]c2ccccc12
5. O=c1cc(-c2cccc3c2Sc2ccccc2S3)oc(N2CCOCC2)c1

## Output
1: 97.7; 2: 75.7; 3: 86.8; 4: 92; 5: 99.2
